test: Drug uptake in human NCI-H1299 cells xenografted in mouse assessed in tumor at 100 mg/kg, po qd after 6 hrs; assay type: ADME, organism-based, Neoplasm; design: dose 100 mg/kg, route oral; details: read-out: Drug uptake
measuredProperty: concentration at 6 h (µM)
Response body: numeric value in µM, unit text excluded.

Hello, please tell me recorded concentration at 6 h for this one: `CN1Cc2cc(Nc3ncc4c(=O)n(-c5c(F)cccc5Cl)c5nccn5c4n3)ccc2C(C)(C)C1`
47.1

----------
assay: Half life in CD-1 mouse at 3 mg/kg, iv; type: ADME, organism-based; design: dose 3 mg/kg, route intravenous; settings: in vivo
Please use condition met whenever half-life is not below 2 h, and condition not met whenever it is.

Please review the following examples before continuing.
{"smilesInput": "CN1Cc2cc(Nc3ncc4c(=O)n(-c5ccccc5Cl)c5nccn5c4n3)ccc2C(C)(C)C1", "qualitativeLabel": "condition met"}
{"smilesInput": "CN1CCN(c2ccc(Nc3ncc4c(=O)n(-c5c(Cl)cccc5Cl)c5nccn5c4n3)cc2)CC1", "qualitativeLabel": "condition not met"}
{"smilesInput": "CN1CCc2ccc(Nc3ncc4c(=O)n(-c5ccccc5Cl)c5nccn5c4n3)cc2C1", "qualitativeLabel": "condition not met"}
{"smilesInput": "CN1Cc2cc(Nc3ncc4c(=O)n(-c5ccccc5Cl)c5nccn5c4n3)ccc2C2(CC2)C1", "qualitativeLabel": "condition met"}

Quick check: does `CN1CCN(c2ccc(Nc3ncc4c(=O)n(-c5ccccc5Cl)c5nccn5c4n3)cc2)CC1` have half-life greater than or equal to 2 h?
condition not met

Quick check: does `CN1Cc2cc(Nc3ncc4c(=O)n(-c5c(F)cccc5Cl)c5nccn5c4n3)ccc2C(C)(C)C1` have half-life greater than or equal to 2 h?
condition met

Quick check: does `CN1Cc2cc(Nc3ncc4c(=O)n(-c5c(Cl)cccc5Cl)c5nccn5c4n3)ccc2C(C)(C)C1` have half-life greater than or equal to 2 h?
condition met

Quick check: does `CN1Cc2cc(Nc3ncc4c(=O)n(-c5c(F)cccc5Cl)c5nccn5c4n3)ccc2C2(CC2)C1` have half-life greater than or equal to 2 h?
condition met
